System: Plasmodium falciparum
Experiment: Calibr Malaria Delayed Death Assay SOP
Format: functional, organism-based
Parameters: scale not given: in the data most compounds retested in dose-response had high values
Conditions: concentration 4.99e-06 (unit not given; other assays of the set use mol/L)
In all, about 38,000 compounds went through this assay and about 1,200 (3.2%) showed an effect of 50% or more. The median lay at about -58%. What follows is part of a selection rich in strong results, with near analogues and random picks from the rest.
Test Readout: Percent Effect
Answer as a quantity: numeral, then unit.

- Compound: "O=c1c(NCc2ccccn2)c(NCC(O)CN2CCOCC2)c1=O (stereo not given)"
  Target Or Test System: "Plasmodium falciparum"
  Percent Effect: "-115.3%"
- Compound: "CN1C[C@H]2N(c3ncccn3)CCC[C@@]2(C(=O)NCC2CC2)C1.O=C(O)C(F)(F)F"
  Target Or Test System: "Plasmodium falciparum"
  Percent Effect: "-55.87%"
- Compound: "Cc1nc[nH]c1CN(C)CC1CCCN(CCc2ccc(Cl)cc2)C1 (stereo not given)"
  Target Or Test System: "Plasmodium falciparum"
  Percent Effect: "82.22%"
- Compound: "Cc1ccsc1C(Cc1ccccc1)NC(=O)CNC(=O)C1CC1 (stereo not given)"
  Target Or Test System: "Plasmodium falciparum"
  Percent Effect: "68.17%"
- Compound: "O=C(CNC(=O)C1CC1)Nc1c(F)cccc1Oc1ccccc1"
  Target Or Test System: "Plasmodium falciparum"
  Percent Effect: "-53.44%"

Answer with reported Percent Effect of COCCNC(=O)C[C@@H]1COC[C@H]2CN(C(=O)C3CCOCC3)C[C@@H]12 -84.55%

Answer with reported Percent Effect of CCc1cnc(C)nc1N1CCC(Cc2cccc(C(=O)O)c2)C1 (stereo not given) -30.8%

Answer with reported Percent Effect of O=C(O)C(F)(F)F.c1ccc2c(c1)N(CC1CCOC1)CC21CCN(c2cnccn2)CC1 (stereo not given) 68.42%

Answer with reported Percent Effect of CCOc1ccc(CNCCCn2ccnc2)cc1Br 79.67%

Answer with reported Percent Effect of COC1CN(C(=O)Cc2cccs2)CCC(=O)N(C)c2ccccc21 (stereo not given) -19.51%

---

Tested on: Plasmodium falciparum
Assay: Calibr Malaria Delayed Death Assay SOP
Format: functional, organism-based
Parameters: scale not given: in the data most compounds retested in dose-response had high values
Conditions: concentration 4.99e-06 (unit not given; other assays of the set use mol/L)
Hit rate of the full screen: of about 38,000 compounds, about 1,200 (3.2%) showed an effect of 50% or more. The median lay at about -58%. The list comes from a sample in which strong results are over-represented; it also holds close analogues and randomly drawn compounds.
With a cut-off of -40%, any Percent Effect strictly below it is called Satisfied; any Percent Effect meeting it or above is called Not satisfied.

Please review the entries below; each comes with its answer.
- Molecule: "FC(F)(F)c1cccc(OC2CCN(Cc3c[nH]cn3)CC2)c1"
  Assigned Category: "Not satisfied"
- Molecule: "CC(=O)Nc1nc2c(s1)C1(CCCC1)Nc1ccccc1S2"
  Assigned Category: "Satisfied"
- Molecule: "CC(C(=O)Nc1cccc(Cl)c1)N1CCN(Cc2ncc[nH]2)CC1 (centres undefined)"
  Assigned Category: "Not satisfied"

Record CO[C@@H]1CCN(c2ncccn2)[C@H]1Cc1ccccc1 : is its Percent Effect strictly below -40%? Satisfied

Record FC(F)(F)c1n[nH]c2c1CN(CCc1ccccn1)CC2 : is its Percent Effect strictly below -40%? Satisfied

Record CN(C)[C@@H]1CCN(c2ncc(F)cn2)[C@H]1Cc1cccnc1.O=C(O)C(F)(F)F.O=C(O)C(F)(F)F : is its Percent Effect strictly below -40%? Not satisfied

Record COc1coc(C(=O)Nc2nc(-c3ccncc3)cs2)cc1=O : is its Percent Effect strictly below -40%? Satisfied

Record CN(C)[C@@H]1CCN(c2ncc(F)cn2)[C@H]1Cc1ccccc1.O=C(O)C(F)(F)F.O=C(O)C(F)(F)F : is its Percent Effect strictly below -40%? Not satisfied

Record FC(F)(F)c1cccc(OC2CCN(Cc3ncc[nH]3)CC2)c1 : is its Percent Effect strictly below -40%? Not satisfied
